- Experimental Target: T1, SHANK1, Q9Y566
- T1 sequence (Q9Y566 658-767, limits assumed, looked up): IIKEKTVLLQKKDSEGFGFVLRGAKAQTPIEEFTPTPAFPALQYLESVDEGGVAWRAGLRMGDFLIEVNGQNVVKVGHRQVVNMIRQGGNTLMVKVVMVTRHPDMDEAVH
- Assay: holdup assay
- Design: key: below the threshold = too weak to quantify, mostly under pKd 3.1 to 4
- Assay Setup: plain residues with an end cap or a label only (N-terminal biotin on a linker: ado-ado)
Test Readout: pKd

Solved entries:
• ELKAEDEVQI [DCHS2, Q6V1P9] = below the threshold
• AHGSTRDQSI [KCNB1, Q14721] = 3.78
• RGKNRRQSIF [CDK18, Q07002] = below the threshold
• LLQEEWETVM [PTH1R, Q03431] = 4.85

Quick one: pKd of AKADAQESRL [PLCB2, Q00722] ? 4.33

Also need YAEKRMLTEV [KCNA6, P17658] , thanks. below the threshold

Consider next the binder GDSSRKEYFI [GYPC, P04921] in the same way. below the threshold

Also, FVFESRKEIL [TBPL1, P62380] please. below the threshold
